Test system: biotinyl-Phe-oxazolone
measurement_description: self-aminoacylation, catalytic enhancement (BFO) (fold over background); higher = more active; k-Seq, kA / k0A0; sequences stand for … in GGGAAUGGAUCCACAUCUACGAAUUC…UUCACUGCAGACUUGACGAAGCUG
Variants at the floor of the assay were thinned out.
readout_type: self-aminoacylation
One number for each entry.

Look over these answered cases.
{"columns": ["residue_sequence", "target_or_test_system", "readout_value"],
 "data": [
  ["CCACACUUCUAGCAAUCGAUC [Fam1B.1 aminoacylation ribozyme variant]", "biotinyl-Phe-oxazolone", 0.626],
  ["CCACACUUCAAUUAAUCGGUC [Fam1B.1 aminoacylation ribozyme variant]", "biotinyl-Phe-oxazolone", 26.1],
  ["AUACUUCCAACAAUCGGUCUG [Fam1A.1 aminoacylation ribozyme variant]", "biotinyl-Phe-oxazolone", 0.856]
]}

Please turn your attention to the following entry.
What measured self-aminoacylation goes with AAGUUGGCUAAUAGUCGCAAU [Fam3.1 aminoacylation ribozyme variant] ?
2.72
